Below, each entry is listed alongside its reported pIC50.
# measurementTarget: phosphorylated EGFR (pEGFR) (Homo sapiens, UniProt P00533)
# Construct: performed to measure phosphorylated EGFR levels using A431 cells (10% FBS); endogenous in cells
# Sequence (P00533 25-1210): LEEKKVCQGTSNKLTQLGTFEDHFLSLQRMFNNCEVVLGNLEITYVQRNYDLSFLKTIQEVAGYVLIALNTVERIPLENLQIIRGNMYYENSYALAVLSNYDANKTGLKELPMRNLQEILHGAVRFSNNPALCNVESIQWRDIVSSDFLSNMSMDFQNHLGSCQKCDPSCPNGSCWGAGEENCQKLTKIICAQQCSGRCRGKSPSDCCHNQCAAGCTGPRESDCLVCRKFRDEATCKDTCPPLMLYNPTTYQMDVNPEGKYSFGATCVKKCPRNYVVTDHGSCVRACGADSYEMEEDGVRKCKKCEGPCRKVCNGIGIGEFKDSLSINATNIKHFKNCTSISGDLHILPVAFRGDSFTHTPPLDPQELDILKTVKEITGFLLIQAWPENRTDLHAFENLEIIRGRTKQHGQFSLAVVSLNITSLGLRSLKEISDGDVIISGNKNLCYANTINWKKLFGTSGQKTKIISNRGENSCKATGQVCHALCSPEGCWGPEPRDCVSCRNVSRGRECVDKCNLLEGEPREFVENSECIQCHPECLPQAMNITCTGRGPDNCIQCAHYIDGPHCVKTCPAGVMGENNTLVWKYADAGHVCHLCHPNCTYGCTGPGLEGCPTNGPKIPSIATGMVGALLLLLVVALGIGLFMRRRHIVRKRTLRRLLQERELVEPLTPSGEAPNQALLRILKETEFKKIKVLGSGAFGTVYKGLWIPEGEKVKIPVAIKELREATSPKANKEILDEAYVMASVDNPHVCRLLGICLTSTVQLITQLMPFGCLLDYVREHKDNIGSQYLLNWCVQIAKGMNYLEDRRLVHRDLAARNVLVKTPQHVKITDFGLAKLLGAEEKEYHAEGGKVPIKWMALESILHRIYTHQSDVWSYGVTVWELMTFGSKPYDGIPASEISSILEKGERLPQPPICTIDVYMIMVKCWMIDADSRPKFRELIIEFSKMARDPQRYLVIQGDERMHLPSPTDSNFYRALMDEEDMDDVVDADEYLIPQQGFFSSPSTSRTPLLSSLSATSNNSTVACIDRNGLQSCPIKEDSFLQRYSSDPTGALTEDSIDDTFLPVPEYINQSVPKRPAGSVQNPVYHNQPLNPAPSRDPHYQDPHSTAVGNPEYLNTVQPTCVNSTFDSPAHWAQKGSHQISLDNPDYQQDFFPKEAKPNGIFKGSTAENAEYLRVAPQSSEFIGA
# assayOverview: Detection of phosphorylated EGFR (pEGFR) in EGF-stimulated A431 cells
# statedConditions: A431 cells (10% FBS), 4 hours incubation, EGF 30 ng/mL 10 minutes, AlphaLISA
# pIC50: negative log10 of molar concentration; output just the value

Q. Return pIC50 for the following compound: Cc1cc(Nc2ncnc3ccc(N4CC/C(=C\CN(C)C)C4=O)nc23)ccc1Oc1ccc2scnc2c1
A. 7.27

Q. Return pIC50 for the following compound: Cc1cc(Nc2ncnc3ccc(N4CC/C(=C\[C@@H]5CCCN5C)C4=O)nc23)ccc1Oc1ccn2ncnc2c1
A. 6.16

Q. Return pIC50 for the following compound: Cc1cc(Nc2ncnc3ccc(N4CC/C(=C\CCN(C)C)C4=O)nc23)ccc1Oc1ccc2c(c1)ncn2C
A. 7.12

Q. Return pIC50 for the following compound: C=C1C(=O)N(c2cc3c(Nc4ccc(Oc5ccn6ncnc6c5)c(C)c4)ncnc3cn2)C[C@H]1C
A. 5.09

Q. Return pIC50 for the following compound: Cc1cc(Nc2ncnc3ccc(N4CC/C(=C\CCN(C)C)C4=O)cc23)ccc1Oc1ccn2ncnc2c1
A. 5.84
